assay: Oral bioavailability study in dogs (plasma levels of compound of formula I); type: in vivo; conditions: dog; oral administration to dogs; plasma level of compound of formula I

STRUCTURE SMILES STRING | UNIT INFO | AUC(0-t)
Cc1ccc(C(=O)NNC(=O)c2c(C)cccc2Cl)cc1C#Cc1cnc2ccccc2c1 | ng·h/mL | 1070
